Source: patent US20250011363A1

study target: acetylcholine receptor
assay details: SPR, AchR immobilised on CM5 chip, peptide 10 uM
Binding affinity (RU): recorded values
Give your result in RU as a bare value.

INSERT INTO assay_data (binder, result_number) VALUES
  ('RREEDK [6mer-1-963]', 29),
  ('RNEHRR [6mer-2-722]', 21),
  ('RRMKVK [6mer-1-1054]', 37);

Now turn to the next binder.
Entry under review: KRKSNK [6mer-1-956] . Reported Binding affinity (RU)?
34
